assay: Toxicity liver stage against HepG2, at 10uM; type: cell-based; parameters: test concentration 10 uM, cell line HepG2-A16-CD81EGFP; details: human, HepG2-A16-CD81EGFP cells; read-out: INHIBITION
Measured cytotoxicity at 10 µM accompanies every entry in the list below.
Please respond with the number in % and leave the unit unwritten.

## Task GET /values?readout=cytotoxicity at 10 µM&item= CN(C)C(=O)NCc1nnn2c1CN(CC1CCOCC1)CCC2
## Result -128

## Task Cn1cccc1C(=O)N1CCc2ncnc(C3CC3)c2CC1 ?
## Result 5.17

Okay, now this compound:
## Task GET /values?readout=cytotoxicity at 10 µM&item= Cc1nc(C(C)C)sc1C(=O)N1CCC(N2CCSCC2)CC1
## Result -3.54
